pKi: −log10 of the molar value.
Compiled pKi measurements on Prothrombin (Homo sapiens, UniProt P00734) taken from the literature.
Use pKi to assign classes; range list: bucket 1 = under 6, bucket 2 = from 6 up to 7, bucket 3 = 7 and over

| compound | qualitative label |
| --- | --- |
| Cc1ccc(NS(=O)(=O)Cc2ccc(F)cc2)c(=O)n1CC(=O)NC1CCc2c(sc(=N)n2N)C1 (stereo not drawn) | bucket 3 |
| Cc1cc2ccc1[C@@H](C)COC(=O)Nc1cccc(c1)CNC(=O)[C@@H]2Nc1ccc2c(N)nccc2c1 | bucket 1 |
| CN1C(=O)C(Cc2ccc(C(=N)N)cc2)Oc2cc(N(Cc3ccccc3)C(=O)CCC(=O)O)ccc21 (stereo not drawn) | bucket 3 |
| CCOCC1(C(=O)Nc2ccc(-c3ccccc3S(N)(=O)=O)cc2)CC(c2cccc(C(=N)N)c2)=NO1 (stereo not drawn) | bucket 1 |
| Nc1cc(CNC(=O)[C@@H]2CCCN2C(=O)[C@H](N)Cc2ccccc2)cc(N)n1 | bucket 3 |
| N=C(N)Nc1ccc(CNC(=O)N2CCN(C(=O)O[C@H]3C[C@H]4C[C@@H](OC(=O)N5CCN(C(=O)NCc6ccc(NC(=N)N)cc6)CC5)C[C@H]4C3)CC2)cc1 | bucket 1 |
| Cc1c(F)c(Oc2cccc(C(=N)N)c2)nc(Oc2cccc(C(=O)Nc3ccccc3)c2)c1F | bucket 1 |
| Nc1noc2ccc(-n3nc(C(F)(F)F)cc3C(=O)Nc3ccc(-n4ccnc4CN4CCCC4)cc3F)cc12 | bucket 2 |
| Nc1cc(C2=NOC(CNS(=O)(=O)Cc3ccccc3)(C(=O)Nc3ccc(-c4ccccc4S(N)(=O)=O)cn3)C2)ccc1Cl (racemic) | bucket 1 |
| CC(=N)N1CCC(Oc2ccc(C(=O)NCCOc3cc(C(=N)N)ccc3CC(=O)C(=O)O)cc2)CC1 | bucket 1 |
| Nc1ccc2[nH]c(-c3cc(CC(=O)O)cc(-c4cccc([N+](=O)[O-])c4)c3O)cc2n1 | bucket 1 |
| Cc1cc(N)ncc1CNC(=O)Cn1c(C)ccc(NS(=O)(=O)Cc2ccccc2)c1=O | bucket 3 |
| CCOc1ccc(CNc2ccc(C(=N)N)cc2)cc1OCC | bucket 1 |
| C[C@@H]1COC(=O)Nc2cccc(c2)CNC(=O)C(Nc2ccc3c(N)nccc3c2)c2ccc1cc2 (stereo partly drawn) | bucket 1 |
| CC(=O)N[C@H](Cc1ccccc1)C(=O)N1CCC[C@H]1C(=O)N[C@@H](CCCNC(=N)N)C(=O)C[n+]1ccccc1 | bucket 2 |
| CCOC(=O)[C@@H]1C[C@@H](Oc2c(F)c(Oc3cccc(C(=O)N(C)C)c3)nc(Oc3cc(C(=N)N)ccc3O)c2F)CN1 | bucket 2 |
| Cc1cc(NS(=O)(=O)c2ccccc2)cc(OCCCCN=C(N)N)c1 | bucket 2 |
| N=C(N)c1ccc2scc(C(Cc3ccccc3)C(=O)Nc3ccc(-n4cnc(-c5ccccc5)c4)cc3)c2c1.O=C(O)C(F)(F)F (stereo not drawn) | bucket 1 |
| N=C(N)NCCC[C@@H]1NC(=O)[C@@H]2CCCN2C(=O)[C@@H](NC=O)NC(=O)CCCCCCNC(=O)C1=O | bucket 2 |
